MEASUREMENT_TARGET: human PD-1 on Jurkat cells (human, UniProt Q15116 25-288)
Sequence (Q15116 25-288): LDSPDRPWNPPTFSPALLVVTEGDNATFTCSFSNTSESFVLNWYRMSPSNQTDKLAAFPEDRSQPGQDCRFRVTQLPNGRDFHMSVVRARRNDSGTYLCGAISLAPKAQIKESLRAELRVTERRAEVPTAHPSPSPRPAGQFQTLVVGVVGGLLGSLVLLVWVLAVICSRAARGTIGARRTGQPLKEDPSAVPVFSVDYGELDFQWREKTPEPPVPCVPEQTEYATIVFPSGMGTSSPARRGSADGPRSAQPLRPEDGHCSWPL
ASSAY_NOTES: cell-based or functional assay
REPORTED_PROPERTY: peak-fold inhibition (luciferase reporter expression)

HHHQVYQVRSHWTGMHSGHD (Found by phage display) [peptide HD20]: ~1.5 fold
SSYHHFKMPELHFGKNTFHQ (Found by phage display) [peptide SQ20]: ~1.5 fold
QTRTVPMPKIHHPPWQNVVP (Found by phage display) [peptide QP20]: ~1.5 fold

Prompt: Look up peak-fold inhibition (luciferase reporter expression) of WNLPASFHNHHIRPHEHEWIQ (also called WQ-21) [peptide WQ20] and report it.
Completion: ~1.5 fold

Cited source for all entries: patent US20230414703A1
